List of Kd values.
- SYSTEM: T1, mouse tissue factor pathway inhibitor (TFPI) (mouse, UniProt O54819 29-289, limits assumed)
- T1 construct: bought; also called mTFPI; murine TFPI
- T1 sequence (looked up): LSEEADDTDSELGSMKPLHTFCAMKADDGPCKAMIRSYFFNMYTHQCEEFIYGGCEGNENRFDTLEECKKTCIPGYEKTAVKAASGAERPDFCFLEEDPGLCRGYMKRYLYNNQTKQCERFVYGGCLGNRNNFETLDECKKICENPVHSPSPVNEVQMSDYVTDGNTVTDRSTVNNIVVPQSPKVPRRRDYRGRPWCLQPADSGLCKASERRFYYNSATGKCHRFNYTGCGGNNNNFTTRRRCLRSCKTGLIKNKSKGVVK
- PROCEDURE_DETAILS: SPR, TFPI immobilized
Please reply with the bare figure in nM and do not write the unit itself.

Field: example entries. Status: answers known.
BINDER	Kd (nM)
B9.7 (4B7 HC N32D+D62R+Y112D/LC S32R+N35I) (Fab, V domains shown) VH: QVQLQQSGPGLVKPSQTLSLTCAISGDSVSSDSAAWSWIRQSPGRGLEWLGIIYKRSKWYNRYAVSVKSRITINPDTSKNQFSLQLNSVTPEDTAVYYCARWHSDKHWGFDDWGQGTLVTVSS VL: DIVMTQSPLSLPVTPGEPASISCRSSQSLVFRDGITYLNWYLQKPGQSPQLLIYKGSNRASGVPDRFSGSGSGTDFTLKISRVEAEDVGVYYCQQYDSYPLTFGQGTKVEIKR	0.0931
B2.0 (4B7 HC N32D+D62R+Y112D/LC S32R+D33F+N35I+D97T) (Fab, V domains shown) VH: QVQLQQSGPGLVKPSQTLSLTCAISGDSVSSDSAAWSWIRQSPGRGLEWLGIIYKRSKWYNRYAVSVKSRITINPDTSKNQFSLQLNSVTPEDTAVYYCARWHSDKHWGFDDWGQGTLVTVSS VL: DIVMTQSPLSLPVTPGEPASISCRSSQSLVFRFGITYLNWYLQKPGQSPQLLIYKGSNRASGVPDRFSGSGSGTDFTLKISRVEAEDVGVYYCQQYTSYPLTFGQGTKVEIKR	0.0451

Reported Kd for 4B7 wild-type Fab (Fab, V domains shown, Fab with HA (or c-myc) and 6xHis tag at the C-terminus of the heavy chain; also called 4B7wt; parental 4B7) VH: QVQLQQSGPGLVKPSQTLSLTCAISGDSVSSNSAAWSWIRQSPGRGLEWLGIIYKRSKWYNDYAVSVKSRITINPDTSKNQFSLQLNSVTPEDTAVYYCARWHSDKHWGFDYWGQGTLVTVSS VL: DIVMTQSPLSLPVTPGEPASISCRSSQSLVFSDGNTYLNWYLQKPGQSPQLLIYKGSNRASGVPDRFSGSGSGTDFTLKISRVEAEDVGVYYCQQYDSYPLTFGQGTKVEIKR was 54.7

Reported Kd for B32.5 (4B7 HC D62R+Y112D/LC D33F+N35I) (Fab, V domains shown) VH: QVQLQQSGPGLVKPSQTLSLTCAISGDSVSSNSAAWSWIRQSPGRGLEWLGIIYKRSKWYNRYAVSVKSRITINPDTSKNQFSLQLNSVTPEDTAVYYCARWHSDKHWGFDDWGQGTLVTVSS VL: DIVMTQSPLSLPVTPGEPASISCRSSQSLVFSFGITYLNWYLQKPGQSPQLLIYKGSNRASGVPDRFSGSGSGTDFTLKISRVEAEDVGVYYCQQYDSYPLTFGQGTKVEIKR was 0.104

Reported Kd for gB9.7-IgG (4B7 HC N32D+G44S+K55Y+D62R+Y112D/LC S32R+N35I) (antibody, V domains shown, IgG format by its name) VH: QVQLQQSGPGLVKPSQTLSLTCAISGDSVSSDSAAWSWIRQSPSRGLEWLGIIYYRSKWYNRYAVSVKSRITINPDTSKNQFSLQLNSVTPEDTAVYYCARWHSDKHWGFDDWGQGTLVTVSS VL: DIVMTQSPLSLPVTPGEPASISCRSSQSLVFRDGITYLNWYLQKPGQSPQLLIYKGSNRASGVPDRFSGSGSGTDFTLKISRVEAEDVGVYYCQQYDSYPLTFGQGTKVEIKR was 0.00875
